Tested on: ATP;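 further: ATP exposure 15 min at 22 °C before imaging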
Assay: switch fluorescence ratio, 500 uM ATP over buffer (Cy3 cluster intensity, sum of 5 cycles each) (fold (ratio)); higher = stronger signal-on switching upon ATP binding; sequences stand for … in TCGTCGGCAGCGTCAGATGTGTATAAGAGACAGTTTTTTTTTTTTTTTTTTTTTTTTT…TC
Details: aptamer strand: ATP DNA aptamer (quencher-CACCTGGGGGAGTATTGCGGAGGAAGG + anchor), 100 nM annealed; ATP concentration: 500 uM
Reported values of switch fluorescence ratio for individual entries
// return a plain number; no unit text

residue-string: CAGGGTACGA
observed: 1.05
--
residue-string: TTTTTGAAAT
observed: 1.35
--
residue-string: GTTTGGGGTG
observed: 0.999
--
residue-string: TTGGATTTTG
observed: 0.978
--
residue-string: TAAAAATAGG
observed: 1

Entry GAATGTGACG — recorded switch fluorescence ratio = 1.02

----------
Test system: ATP;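 further: ATP exposure 15 min at 22 °C before imaging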
Assay: switch fluorescence ratio, 500 uM ATP over buffer (Cy3 cluster intensity, sum of 5 cycles each) (fold (ratio)); higher = stronger signal-on switching upon ATP binding; sequences stand for … in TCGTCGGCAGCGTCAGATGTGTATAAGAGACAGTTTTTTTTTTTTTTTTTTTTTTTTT…TC
Settings: aptamer strand: ATP DNA aptamer (quencher-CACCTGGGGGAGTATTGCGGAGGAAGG + anchor), 100 nM annealed; ATP concentration: 500 uM
property-name: switch fluorescence ratio
Give a plain numeric answer without units written out.

Worked set:
residue-string: TTCGGTCGGG
test-target: ATP;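 further: ATP exposure 15 min at 22 °C before imaging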
observed: 0.987
//
residue-string: CCGGGCTGGG
test-target: ATP;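 further: ATP exposure 15 min at 22 °C before imaging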
observed: 1.03
//
residue-string: TACGCTGACG
test-target: ATP;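 further: ATP exposure 15 min at 22 °C before imaging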
observed: 1.13
//
residue-string: TCCAGGGTAC
test-target: ATP;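 further: ATP exposure 15 min at 22 °C before imaging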
observed: 1.23
//
residue-string: TTGCATTAGG
test-target: ATP;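 further: ATP exposure 15 min at 22 °C before imaging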
observed: 1.28
//
residue-string: TTAAAATGTG
test-target: ATP;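 further: ATP exposure 15 min at 22 °C before imaging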
observed: 1.04

Entry ATACCGGATT ; switch fluorescence ratio = 1.01

Per the record, TTTCAGTGTT has switch fluorescence ratio of 1.05

----------
Tested on: ATP;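 further: ATP exposure 15 min at 22 °C before imaging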
Test: switch fluorescence ratio, 500 uM ATP over buffer (Cy3 cluster intensity, sum of 5 cycles each) (fold (ratio)); higher = stronger signal-on switching upon ATP binding; sequences stand for … in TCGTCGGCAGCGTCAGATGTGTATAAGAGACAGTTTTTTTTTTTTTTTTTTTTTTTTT…TC
Conditions: aptamer strand: ATP DNA aptamer (quencher-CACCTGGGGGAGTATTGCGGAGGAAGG + anchor), 100 nM annealed; ATP concentration: 500 uM
property-name: switch fluorescence ratio

Reference set, count: 5
residue-string: CAAGAAGTGG
switch fluorescence ratio: 0.993
--
residue-string: ATCGGTCTGT
switch fluorescence ratio: 0.975
--
residue-string: AGATTGTATG
switch fluorescence ratio: 1.01
--
residue-string: CCTGAGTCGT
switch fluorescence ratio: 1.09
--
residue-string: ATAGGTCTCG
switch fluorescence ratio: 1

GET /value?item= ATTAGGCAAT &field=switch fluorescence ratio returns 1.22

For this sequence ( CGATGCTAGT ), measured switch fluorescence ratio is 1.07

Form field switch fluorescence ratio, entry AACTTTAGTC : 0.994

# sequence TTGTTTCAAG ; its switch fluorescence ratio = 1.01

TAGAAGGGCC has a reported switch fluorescence ratio of 0.976

Sure, the documented switch fluorescence ratio for TTATCCGGTT is 1.01

Short answer for CCATTGTAGT : switch fluorescence ratio was 0.99

# sequence GGTATAATAC ; its switch fluorescence ratio = 1.23

Reported switch fluorescence ratio ( CCGTCAACTA ) = 1.96

The reported switch fluorescence ratio of the sequence ATTTTAGTGT was 0.968

Looking up GGTTGTGCGA , I see its switch fluorescence ratio listed as 0.983

GET /value?item= CAGTGGTCGG &field=switch fluorescence ratio returns 1

Entry under test: CAGGAGCATT . Its switch fluorescence ratio was 3.09

// switch fluorescence ratio lookup, sequence = ACGGTAATTC , result: 1.18

Record CCTATGATTG . Reported switch fluorescence ratio: 0.981

Notebook: GGGTTTGTA , switch fluorescence ratio read as 0.965

Entry TCTTTGTTTT — recorded switch fluorescence ratio = 0.991

GET /value?item= TCTGTGATCT &field=switch fluorescence ratio returns 1.01

Briefly, switch fluorescence ratio measured for AGGGCAAAAG : 1.03

The recorded switch fluorescence ratio for entry GATTTGGGGA equals 0.988

Sample GCATCACGAG ; switch fluorescence ratio observed: 1.08

switch fluorescence ratio for TATGAATTTG is 1

Quick note, switch fluorescence ratio for TCGTGGTTTC landed at 0.982

----------
Test system: ATP;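 further: ATP exposure 15 min at 22 °C before imaging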
Experiment: switch fluorescence ratio, 500 uM ATP over buffer (Cy3 cluster intensity, sum of 5 cycles each) (fold (ratio)); higher = stronger signal-on switching upon ATP binding; sequences stand for … in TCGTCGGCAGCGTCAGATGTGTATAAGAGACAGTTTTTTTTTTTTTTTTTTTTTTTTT…TC
Conditions: aptamer strand: ATP DNA aptamer (quencher-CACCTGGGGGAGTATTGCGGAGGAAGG + anchor), 100 nM annealed; ATP concentration: 500 uM
switch fluorescence ratio values by entry
# answer = number (no unit)

residue-string: GAGATTGGGA
switch fluorescence ratio: 1.04
//
residue-string: AGTCATTAGG
switch fluorescence ratio: 1.03
//
residue-string: TGGAGGGGGT
switch fluorescence ratio: 1.09
//
residue-string: GCTATGAGTA
switch fluorescence ratio: 0.983

Moving on to the next sequence.
Response field switch fluorescence ratio (ATP) for item TTGCAATTTT : 1.36

----------
System: ATP;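 further: ATP exposure 15 min at 22 °C before imaging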
Assay: switch fluorescence ratio, 500 uM ATP over buffer (Cy3 cluster intensity, sum of 5 cycles each) (fold (ratio)); higher = stronger signal-on switching upon ATP binding; sequences stand for … in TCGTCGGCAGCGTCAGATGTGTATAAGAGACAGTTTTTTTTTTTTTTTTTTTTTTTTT…TC
Conditions: aptamer strand: ATP DNA aptamer (quencher-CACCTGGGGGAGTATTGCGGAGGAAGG + anchor), 100 nM annealed; ATP concentration: 500 uM
Output label 1 for switch fluorescence ratio not less than 1; output label 0 otherwise.

residue-string: TAGGACTAGA
label-class: label 0

Query: Does switch fluorescence ratio meet or surpass 1 for AGTGTAAAAA ?
Result: label 1

Query: Check if switch fluorescence ratio >= 1 (inclusive). Item: TTGGGTATTA
Result: label 0

Query: Check the entry TGTGTCGGTC : does switch fluorescence ratio equal or exceed 1?
Result: label 1

Query: Identify whether the reported switch fluorescence ratio of the following sequence is 1 or greater: TGGGGGAGCC
Result: label 1

----------
Tested on: ATP;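 further: ATP exposure 15 min at 22 °C before imaging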
Experiment: switch fluorescence ratio, 500 uM ATP over buffer (Cy3 cluster intensity, sum of 5 cycles each) (fold (ratio)); higher = stronger signal-on switching upon ATP binding; sequences stand for … in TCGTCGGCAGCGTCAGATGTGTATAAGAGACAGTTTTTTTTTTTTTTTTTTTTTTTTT…TC
Details: aptamer strand: ATP DNA aptamer (quencher-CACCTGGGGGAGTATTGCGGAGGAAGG + anchor), 100 nM annealed; ATP concentration: 500 uM
Tick satisfied if switch fluorescence ratio is 1 or greater. Tick not satisfied if switch fluorescence ratio is less than 1.

Examples with answers:
residue-string: TTTTGTAATT
label-class: satisfied
--
residue-string: TGGCACATAT
label-class: satisfied
--
residue-string: TATGGCATAC
label-class: satisfied
--
residue-string: GGTTAAGTTT
label-class: not satisfied
--
residue-string: GGGGTTCCGG
label-class: not satisfied
--
residue-string: GTGTATGGGA
label-class: not satisfied
--
residue-string: GGGGTCAGCC
label-class: satisfied
--
residue-string: AGAAGTACGC
label-class: satisfied

Query: # check: switch fluorescence ratio of GACATTGGCT is greater than or equal to 1
Result: not satisfied

Query: Could you please find out whether GCTAAAGGTC has switch fluorescence ratio that meets 1 or exceeds it?
Result: satisfied

Query: // inclusive: switch fluorescence ratio at least 1? input: GGGTTCTTC
Result: satisfied

----------
System: ATP;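 further: ATP exposure 15 min at 22 °C before imaging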
Test: switch fluorescence ratio, 500 uM ATP over buffer (Cy3 cluster intensity, sum of 5 cycles each) (fold (ratio)); higher = stronger signal-on switching upon ATP binding; sequences stand for … in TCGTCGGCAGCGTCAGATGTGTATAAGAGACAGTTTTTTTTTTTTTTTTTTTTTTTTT…TC
Conditions: aptamer strand: ATP DNA aptamer (quencher-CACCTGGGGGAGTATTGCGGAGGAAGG + anchor), 100 nM annealed; ATP concentration: 500 uM
property-name: switch fluorescence ratio
Respond numerically, and do not add a unit to the figure.

residue-string: GCGTTGTGAA
property-name: switch fluorescence ratio
observed: 0.984

switch fluorescence ratio for TTAATGGGAC is 1.01

Just so you know, measured switch fluorescence ratio for AAGGTTGCGT came out at 0.986

Short answer for GCTTTTGGCG : switch fluorescence ratio was 1.02

AGGGCGGCTG has a reported switch fluorescence ratio of 0.985

Record TTGAGAGCAG . Reported switch fluorescence ratio: 1.24

// switch fluorescence ratio value for AAATTTAGGA : 0.987

The sequence identified as GGGTATTACT registered its switch fluorescence ratio at 1.03

switch fluorescence ratio reported for this sequence GGGATTAAGG : 0.999

Entry under test: CGTGGCTATG . Its switch fluorescence ratio was 0.959

For CCTCGTTTTT the sequence record lists switch fluorescence ratio as 1.11

Per the records, this sequence ( ATCATGTGCG ) has switch fluorescence ratio equal to 1.01

# switch fluorescence ratio (sequence: AAACTGGATG ) is 0.978

switch fluorescence ratio reading for GCGTGATTGC : 1.06

switch fluorescence ratio in this record for TTTATCGCCG : 0.974

Kindly note the recorded switch fluorescence ratio for ATAGGACGCA , which is 1.27

Form field switch fluorescence ratio, entry TAAGTTTTGC : 0.979
